# Tested on: Rattus norvegicus
# procedure.text: Toxicity in nonloaded rat assessed as kaluretic effect by measuring increase in K+ secretion at 15 mg/kg after 6 hrs relative to control
# Type: organism-based
# Design: dose 15 mg/kg
# assay.context: in vivo
experimental.endpoint: Activity (milliequivalent)
API: value field is a number in milliequivalent; no unit string.

Consider the worked cases shown below.
smiles.structure: COC(=O)c1cc2c(C)cc(C)nc2nc1N
experimental.endpoint: Activity
measurement.unit: milliequivalent
observed.measurement: 0.21

smiles.structure: CCCCNC(=O)c1cc2c(C)cc(C)nc2nc1N
experimental.endpoint: Activity
measurement.unit: milliequivalent
observed.measurement: 0.25

smiles.structure: CCCCCNC(=O)c1cc2c(C)cc(C)nc2nc1N
experimental.endpoint: Activity
measurement.unit: milliequivalent
observed.measurement: 0.263

smiles.structure: CCCNC(=O)c1cc2c(C)cc(C)nc2nc1N
experimental.endpoint: Activity
measurement.unit: milliequivalent
observed.measurement: 0.25

smiles.structure: Cl.NC(=O)c1cc2cccnc2nc1N.O
experimental.endpoint: Activity
measurement.unit: milliequivalent
observed.measurement: 0.161

smiles.structure: Nc1nc(N)c2nc(-c3ccccc3)c(N)nc2n1
experimental.endpoint: Activity
measurement.unit: milliequivalent
observed.measurement: 0.136

Ask: Can you look up the measured Activity of CCNC(=O)c1cc2c(C)cc(C)nc2nc1N for me?
Result: 0.301

Data origin: ChEMBL document CHEMBL3272055
